System: MRSA isolate ATCC BAA-1556
Test: MIC, CLSI-guided broth susceptibility testing, MRSA 1556
Assay type: cell-based, Staphylococcus aureus
Details: MRSA isolate ATCC BAA-1556
Measured endpoint: MIC Values, MRSA 1556 (mg/L)

compound="CCCCCCCCCCCCCCCC(=O)OCCNC1(C)CC(OC2C(Oc3c4cc5cc3Oc3ccc(cc3Cl)C(O)C3NC(=O)C(NC(=O)C5NC(=O)C(CC(N)=O)NC(=O)C(NC(=O)C(CC(C)C)NC)C(O)c5ccc(c(Cl)c5)O4)c4ccc(O)c(c4)-c4c(O)cc(O)cc4C(C(=O)O)NC3=O)OC(CO)C(O)C2O)OC(C)C1O (centres unmarked) [RV89]" measured_endpoint="MIC Values, MRSA 1556" value_reported=1.000
compound="CCCCCCCCCC(=O)OCCNC1(C)CC(OC2C(Oc3c4cc5cc3Oc3ccc(cc3Cl)C(O)C3NC(=O)C(NC(=O)C5NC(=O)C(CC(N)=O)NC(=O)C(NC(=O)C(CC(C)C)NC)C(O)c5ccc(c(Cl)c5)O4)c4ccc(O)c(c4)-c4c(O)cc(O)cc4C(C(=O)O)NC3=O)OC(CO)C(O)C2O)OC(C)C1O (centres unmarked) [RV54]" measured_endpoint="MIC Values, MRSA 1556" value_reported=0.167
compound="CCCCCCCCCCCCNC(=O)CNC1(C)CC(OC2C(Oc3c4cc5cc3Oc3ccc(cc3Cl)C(O)C3NC(=O)C(NC(=O)C5NC(=O)C(CC(N)=O)NC(=O)C(NC(=O)C(CC(C)C)NC)C(O)c5ccc(c(Cl)c5)O4)c4ccc(O)c(c4)-c4c(O)cc(O)cc4C(C(=O)O)NC3=O)OC(CO)C(O)C2O)OC(C)C1O (centres unmarked) [RV95]" measured_endpoint="MIC Values, MRSA 1556" value_reported=0.031
compound="CCCCCCCC(=O)NCCNC1(C)CC(OC2C(Oc3c4cc5cc3Oc3ccc(cc3Cl)C(O)C3NC(=O)C(NC(=O)C5NC(=O)C(CC(N)=O)NC(=O)C(NC(=O)C(CC(C)C)NC)C(O)c5ccc(c(Cl)c5)O4)c4ccc(O)c(c4)-c4c(O)cc(O)cc4C(C(=O)O)NC3=O)OC(CO)C(O)C2O)OC(C)C1O (centres unmarked) [RV93]" measured_endpoint="MIC Values, MRSA 1556" value_reported=0.125
compound="CNC(CC(C)C)C(=O)NC1C(=O)NC(CC(N)=O)C(=O)NC2C(=O)NC3C(=O)NC(C(=O)NC(C(=O)O)c4cc(O)cc(O)c4-c4cc3ccc4O)C(O)c3ccc(c(Cl)c3)Oc3cc2cc(c3OC2OC(CO)C(O)C(O)C2OC2CC(C)(NCCO)C(O)C(C)O2)Oc2ccc(cc2Cl)C1O (centres unmarked) [RV80]" measured_endpoint="MIC Values, MRSA 1556" value_reported=1
